B1: Azoarcus group I ribozyme (parent)
chain: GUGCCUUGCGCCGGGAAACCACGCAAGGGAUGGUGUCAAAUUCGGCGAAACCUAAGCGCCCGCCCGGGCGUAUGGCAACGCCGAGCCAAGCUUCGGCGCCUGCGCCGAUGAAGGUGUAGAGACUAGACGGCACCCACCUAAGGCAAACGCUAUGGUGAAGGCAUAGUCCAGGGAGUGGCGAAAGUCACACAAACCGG

- Variants of: B1
- ASSAY: reverse-splicing fitness (ratio to wild type); higher = more active; in vitro selection; Mg2+ level not given
VALUE_KIND: reverse-splicing fitness

Past entries and their recorded results:
>>> measured_value("C82U A111U A120G A145C C169A U176G")
0.00391
>>> measured_value("C82U A120U A145C C150G C169A")
0.00211
>>> measured_value("C82G A111G A120U A145U C169U U176A")
0.00226

Request: Look up reverse-splicing fitness: A111C A120G A145G C150A C169G U176A
Result: 0.0195

Request: Look up reverse-splicing fitness: C82U A111C A145U C150U C169A U176G
Result: 0.00765

Request: Look up reverse-splicing fitness: C82G A111U A120G A145C C150A
Result: 0.00696

Request: Look up reverse-splicing fitness: C82U A111U A145U U176G
Result: 0.0313

Request: Look up reverse-splicing fitness: A111U A120G A145C C150A C169A U176A
Result: 0.0144

Request: Look up reverse-splicing fitness: A111U A120G A145C C150U C169G U176G
Result: 0.00545

Request: Look up reverse-splicing fitness: C82A A111G A145G C169U U176C
Result: 0.0149

Request: Look up reverse-splicing fitness: C82U A111C A120C A145U C150A C169U U176G
Result: 0.00706

The reported measurements were obtained from the RNAGym collection of RNA variant scans (doi:10.1093/molbev/msab373).
